Reported pIC50 values are given for each entry in this list.
Molecular target: UniProt P56730
Sequence (P56730 21-875): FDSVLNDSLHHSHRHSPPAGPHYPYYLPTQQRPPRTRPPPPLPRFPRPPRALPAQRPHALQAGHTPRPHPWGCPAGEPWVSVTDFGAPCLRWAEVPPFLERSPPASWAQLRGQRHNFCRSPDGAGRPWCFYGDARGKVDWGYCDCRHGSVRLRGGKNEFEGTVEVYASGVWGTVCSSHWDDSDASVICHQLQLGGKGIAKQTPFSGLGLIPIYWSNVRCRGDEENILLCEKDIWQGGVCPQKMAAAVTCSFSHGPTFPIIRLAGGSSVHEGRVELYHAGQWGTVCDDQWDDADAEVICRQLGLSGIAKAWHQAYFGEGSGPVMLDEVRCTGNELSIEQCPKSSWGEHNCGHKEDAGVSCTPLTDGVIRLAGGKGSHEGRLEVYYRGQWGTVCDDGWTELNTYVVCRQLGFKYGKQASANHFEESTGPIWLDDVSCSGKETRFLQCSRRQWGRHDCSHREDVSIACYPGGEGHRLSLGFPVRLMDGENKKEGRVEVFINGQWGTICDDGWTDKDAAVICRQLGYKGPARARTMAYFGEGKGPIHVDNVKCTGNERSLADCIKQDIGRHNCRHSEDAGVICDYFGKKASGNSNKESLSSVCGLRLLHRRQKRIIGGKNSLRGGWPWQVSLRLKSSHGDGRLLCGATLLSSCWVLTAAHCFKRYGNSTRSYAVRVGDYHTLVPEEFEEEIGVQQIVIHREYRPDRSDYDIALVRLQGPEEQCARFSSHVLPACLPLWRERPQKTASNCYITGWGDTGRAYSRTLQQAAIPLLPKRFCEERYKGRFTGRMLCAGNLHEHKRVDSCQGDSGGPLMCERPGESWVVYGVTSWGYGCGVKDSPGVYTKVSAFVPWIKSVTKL
Assay: Determination of IC50 for human neurotrypsin
Type: biochemical
Conditions: human neurotrypsin; method of WO 2006/1103261; read-out: Neurotrypsin IC50
pIC50: −log10 of the molar value.

>  <mol>
CC(C)CNC(=O)c1ccc(NC(=O)c2ccc(-c3nc4cc(Cl)c(Cl)cc4[nH]3)cc2)c(C(=O)O)c1

>  <pIC50>
5.12

$$$$
>  <mol>
O=C(NCc1ccccc1)c1ccc(NC(=O)c2ccc(-c3nc4cc(Cl)c(Cl)cc4[nH]3)cc2)c(C(=O)O)c1

>  <pIC50>
5.28

$$$$
>  <mol>
CC(C)(C)c1ccc(NC(=O)c2ccc(C(=O)O)c(NC(=O)c3sc4ccccc4c3Cl)c2)cc1

>  <pIC50>
5.51

$$$$
>  <mol>
O=C(Nc1ccc(Cl)cc1)c1ccc(C(=O)O)c(NC(=O)c2cc(Br)cc(Br)c2O)c1

>  <pIC50>
5.41

$$$$
>  <mol>
COc1ccc2c(Cl)c(C(=O)Nc3cc(C(=O)Nc4ccc(Cl)cc4)ccc3C(=O)O)sc2c1

>  <pIC50>
5.66

$$$$
>  <mol>
O=C(O)c1ccc(NS(=O)(=O)c2ccc(Cl)cc2)cc1NC(=O)c1sc2ccccc2c1Cl

>  <pIC50>
4.71

$$$$
>  <mol>
O=C(Nc1ccc(Cl)cc1)c1ccc(-c2nn[nH]n2)c(NC(=O)c2sc3ccccc3c2Cl)c1

>  <pIC50>
5.43

$$$$

====

Molecular target: human neurotrypsin (Homo sapiens)
Assay: Determination of IC50 for human neurotrypsin
Assay type: biochemical
Details: human neurotrypsin; method of WO 2006/1103261; read-out: Neurotrypsin IC50
pIC50: −log10 of the molar value.
measurement label: pIC50

>  <compound>
N#Cc1ccc(-c2ccc(C(=O)O)c(NC(=O)c3sc4ccccc4c3Cl)c2)cc1 [Example 255]

>  <numeric result>
5.51

$$$$
>  <compound>
O=C(Nc1ccc(Cl)cc1)c1cc(NC(=O)c2sc3ccccc3c2Cl)c(C(=O)O)cc1O [Example 303]

>  <numeric result>
5.26

$$$$
>  <compound>
CN(C(=O)c1ccc(C(=O)O)c(NC(=O)c2sc3ccccc3c2Cl)c1)c1cc2ccccc2s1 [Example 88]

>  <numeric result>
4.61

$$$$
>  <compound>
O=C(O)c1ccc(C(=O)Nc2ccc(Cc3ccccc3)cc2)c(NC(=O)c2sccc2Cl)c1 [Example 196]

>  <numeric result>
4.99

$$$$
>  <compound>
O=C(O)c1cc(C(=O)N2CCC(Cc3ccccc3)CC2)ccc1NC(=O)c1sc2ccccc2c1Cl [Example 157]

>  <numeric result>
5.42

$$$$
>  <compound>
O=C(Nc1ccc(Cl)cc1)Nc1ccc(C(=O)O)c(NC(=O)c2sc3ccccc3c2Cl)c1 [Example 276]

>  <numeric result>
5.20

$$$$
>  <compound>
CC(NC(=O)c1ccc(NC(=O)c2ccc(-c3ccc(Cl)cc3)s2)c(C(=O)O)c1)c1ccc(Cl)cc1 (stereo not drawn) [Example 110]

>  <numeric result>
5.47

$$$$
>  <compound>
O=C(O)c1cc(C(=O)N2CCC(Cc3ccc(F)cc3)CC2)ccc1NC(=O)c1sc2ccccc2c1Cl [Example 114]

>  <numeric result>
5.52

$$$$
>  <compound>
O=C(O)c1ccc(C(=O)N2CCC(Oc3ccccc3)CC2)cc1NC(=O)c1sc2ccccc2c1Cl [Example 28]

>  <numeric result>
4.95

$$$$
>  <compound>
O=C(Nc1ccc(C(=O)N2CCC(Cc3ccccc3)CC2)cc1C(=O)O)c1cc2ccc(Cl)cc2s1 [Example 158]

>  <numeric result>
5.42

$$$$
>  <compound>
O=C(Nc1ccc(Cl)cc1F)c1ccc(NC(=O)c2ccc(-c3nc4cc(Cl)c(Cl)cc4[nH]3)cc2)c(C(=O)O)c1 [Example 51]

>  <numeric result>
6.30

$$$$
>  <compound>
O=C(Nc1ccc(Cc2ccccc2)cc1)c1ccc(C(=O)O)c(NC(=O)c2sc3ccccc3c2Cl)c1 [Example 67]

>  <numeric result>
4.97

$$$$
>  <compound>
O=C(O)c1ccc(NC2CCCc3ccccc32)cc1NC(=O)c1sc2ccccc2c1Cl (stereo not drawn) [Example 291]

>  <numeric result>
5.40

$$$$
>  <compound>
CC(NC(=O)c1ccc(NC(=O)c2ccc(-c3nc4cc(Cl)c(Cl)cc4[nH]3)cc2)c(C(=O)O)c1)c1ccc(Cl)cc1 (stereo not drawn) [Example 133]

>  <numeric result>
5.72

$$$$
>  <compound>
O=C(Nc1ccc(C(=O)NC2CCCCC2)cc1C(=O)O)c1ccc(-c2nc3cc(Cl)c(Cl)cc3[nH]2)cc1 [Example 125]

>  <numeric result>
5.46

$$$$
>  <compound>
O=C(COc1ccc(NC(=O)c2ccc(-c3nc4cc(Cl)c(Cl)cc4[nH]3)cc2)c(C(=O)O)c1)Nc1ccc(Cl)cc1 [Example 311]

>  <numeric result>
6.30

$$$$
>  <compound>
O=C(Nc1ccc(Cl)cc1F)c1ccc(C(=O)O)c(NC(=O)c2sc3ccccc3c2Cl)c1 [Example 5]

>  <numeric result>
5.72

$$$$
>  <compound>
O=C(NC1Cc2ccccc2C1)c1ccc(NC(=O)c2sc3ccccc3c2Cl)c(C(=O)O)c1 [Example 159]

>  <numeric result>
5.19

$$$$
>  <compound>
O=C(Nc1ccc(Cl)cc1F)c1ccc(NC(=O)c2[nH]c3ccc(Cl)cc3c2-c2ccccc2)c(C(=O)O)c1 [Example 140]

>  <numeric result>
6.05

$$$$
>  <compound>
O=C(Nc1cccc(Oc2ccccc2)c1)c1ccc(C(=O)O)c(NC(=O)c2sc3ccccc3c2Cl)c1 [Example 65]

>  <numeric result>
5.14

$$$$
>  <compound>
COC(=O)c1cc(OCC(=O)O)c(C(=O)Nc2ccc(Cl)cc2)cc1NC(=O)c1ccc(-c2nc3cc(Cl)c(Cl)cc3n2C)cc1 [Example 305]

>  <numeric result>
5.92

$$$$
>  <compound>
O=C(O)c1ccc(N2CC(c3ccc(Cl)cc3)CC2=O)cc1NC(=O)c1sc2ccccc2c1Cl (stereo not drawn) [Example 282]

>  <numeric result>
4.95

$$$$
>  <compound>
O=C(Nc1ccc(Cl)cc1)c1ccc(NC(=O)c2ccc(-c3nc4ccccc4[nH]3)cc2)c(C(=O)O)c1 [Example 36]

>  <numeric result>
5.46

$$$$
>  <compound>
CC(Nc1ccc(C(=O)O)c(NC(=O)c2sc3ccccc3c2Cl)c1)c1ccc(Cl)cc1 (stereo not drawn) [Example 290]

>  <numeric result>
5.39

$$$$
>  <compound>
O=C(O)c1cc(C(=O)N2CCC(c3c(Cl)cccc3Cl)CC2)ccc1NC(=O)c1sc2ccccc2c1Cl [Example 35]

>  <numeric result>
5.49

$$$$
>  <compound>
O=C(O)c1ccc(-c2ccccc2Cl)cc1NC(=O)c1sc2ccccc2c1Cl [Example 250]

>  <numeric result>
5.62

$$$$
>  <compound>
O=C(Nc1ccccc1F)c1ccc(NC(=O)c2ccc(-c3nc4cc(Cl)c(Cl)cc4[nH]3)cc2)c(C(=O)O)c1 [Example 48]

>  <numeric result>
5.47

$$$$
>  <compound>
O=C(O)c1cc(N2CC(c3ccc(Cl)cc3)CC2=O)ccc1NC(=O)c1sc2ccccc2c1Cl (stereo not drawn) [Example 287]

>  <numeric result>
5.37

$$$$
>  <compound>
O=C(NC12CC3CC(CC(C3)C1)C2)c1ccc(C(=O)O)c(NC(=O)c2sc3ccccc3c2Cl)c1 [Example 33]

>  <numeric result>
5.35

$$$$
>  <compound>
O=C(Nc1ccccc1)c1ccc(NC(=O)c2ccc(-c3nc4cc(Cl)c(Cl)cc4[nH]3)cc2)c(C(=O)O)c1 [Example 138]

>  <numeric result>
5.18

$$$$
